system: TK-10 renal; experiment: NCI tumour cell line growth inhibition, 48 h
*1 amine or outer side, *2 acyl side, *3 side chain or, on linkers, in order; H or OH if unused. Where a SMILES comes first, the peptide text is derived from it. Bridges are numbered along the chain shown (N, C = ends). [ ]: non-standard residue; d: D form. The star is where a group is joined. Phe(3,5-F2) = N[C@@H](Cc1cc(F)cc(F)c1)C(=O)O; Pro(4R-Me) = C[C@H]1CN[C@H](C(=O)O)C1; aThr = C[C@H](O)[C@H](N)C(=O)O; Pip = O=C(O)[C@@H]1CCCCN1; X10 = Fc1cc(C2CC2)ccc1N*; CO = O=C([*:1])[*:2]
Measured TGI, listed per entry.

Prompt line: // query TGI value for entry "COc1cc(Br)cc2cc(-c3cn4ccsc4n3)c(=O)oc12"
Response line: > 100 µM

Prompt line: // query TGI value for entry CCCC1C(=O)CCc2c(OC)ccc(OC)c21 (configuration not stated)
Response line: > 100 µM

Prompt line: // query TGI value for entry CCOC(=O)C(SCCO)C(C(=O)OCC)n1cnc2c(=O)[nH]c(NC(C)=O)nc21 (configuration not stated)
Response line: > 100 µM

Prompt line: // query TGI value for entry "O=C(O)CCNCCCNCCC(=O)O"
Response line: > 100 µM

Prompt line: // query TGI value for entry "Cc1ccc(-c2n[nH]c(=O)n2N2C(=O)c3ccccc3C2=O)cc1"
Response line: > 100 µM

Prompt line: // query TGI value for entry "Cc1nc2c(ccc3ncccc32)[nH]1"
Response line: > 100 µM

Prompt line: // query TGI value for entry NC1=NCCC1(c1ccccc1)c1ccccn1 (configuration not stated)
Response line: > 100 µM

Prompt line: // query TGI value for entry "C=C1C(=O)O[C@@H]2C(=O)[C@@H](C)CCC/C(C)=C/CC[C@@]3(C)O[C@@H]3C[C@@H]12"
Response line: 81.6 µM

Prompt line: // query TGI value for entry C[C@@H]1C[C@H]2C(=O)O[C@@H](C)[C@H](NC(=O)[C@H](Cc3cc(F)cc(F)c3)NC(=O)Nc3ccc(C4CC4)cc3F)C(=O)N3CCC[C@H]3C(=O)N3CCCC[C@H]3C(=O)N[C@@H](C)C(=O)N2C1 ({X10-CO}-[Phe(3,5-F2)][aThr]P[Pip]A[Pro(4R-Me)]; ester 2-C)
Response line: > 35.1 µM

Prompt line: // query TGI value for entry CCOC(=O)CCC1(C(=O)OCC)CCCCC1=O (configuration not stated)
Response line: > 100 µM

Prompt line: // query TGI value for entry "O=C(CCNC12CC3CC(CC(C3)C1)C2)c1ccccc1"
Response line: 39.6 µM

Prompt line: // query TGI value for entry "c1csc(-c2ccc(-c3cccc4nsnc34)s2)c1"
Response line: > 100 µM

* * *

test system: MOLT-4 leukemia; assay: NCI tumour cell line growth inhibition, 48 h
MEASURED PARAMETER: GI50

Prompt line: // query GI50 value for entry "OCCN(CCO)c1ncnc2c1ncn2Cc1ccc(CCl)cc1"
Response line: 8.54 µM

Prompt line: // query GI50 value for entry CCOC1Oc2ccccc2C(=O)/C1=C/Nc1ccc(C(C)=O)cc1 (stereo not given)
Response line: 15.8 µM

New cases:
Prompt line: // query GI50 value for entry "Nc1c(C(=O)c2cccc(CCS(N)(=O)=O)c2)cnn1-c1ccc(F)cc1"
Response line: > 25 µM

Prompt line: // query GI50 value for entry "Cc1ccc2c(C)c3c(ccc4ccccc43)c[n+]2c1"
Response line: 5.54 µM

Prompt line: // query GI50 value for entry "Cn1cc(C2=C(c3c4n(c5ccccc35)CCCCC4)C(=O)NC2=O)c2ccccc21"
Response line: 7.04 µM
